Biological target: full-length human ATR protein (ATR/ATRIP) (Homo sapiens (Human))
Assay: Binding Assay ATR (TR-FRET, tracer A displacement)
Settings: displacement of fluorescent tracer A from GST-ATR/ATRIP
Text: To determine of binding activity of the test compounds, full-length human ATR protein was expressed and purified together with ATRIP as described above. Furthermore, a fluorescently labelled compound (tracer A as described above) was used as a tracer molecule. Detection of the binding event of the tracer was achieved by time-resolved fluorescence energy transfer (TR-FRET). We used an anti-GST-Terbium antibody (CisBio) that binds to the GST-tag at the N-terminus of ATR-kinase. […]
Would you mind telling me the reported IC50 of each entry?
Response body: numeric value in nM, unit text excluded.

Q: Reported IC50, compound Cc1cnc(-c2ccn[nH]2)c2nc(N3CCOC[C@H]3C)cc(N3CCN(S(C)(=O)=O)CC3)c12 : ____
Ans: 5.49

Q: Reported IC50, compound Cc1cnc(-c2ccn[nH]2)c2nc(N3CCOC[C@H]3C)cc(-c3cccc(C(=O)N(C)C)c3)c12 : ____
Ans: 40.6

Q: Reported IC50, compound Cc1cnccc1-c1cc(N2CCOC[C@H]2C)nc2c(-c3ccn[nH]3)ncc(C)c12 : ____
Ans: 7.78

Q: Reported IC50, compound Cc1cnc(-c2ccn[nH]2)c2nc(N3CCOC[C@H]3C)cc(-c3ccc(C(=O)NCc4ccccc4)cc3)c12 : ____
Ans: 34.6

Q: Reported IC50, compound Cc1cnc(-c2ccn[nH]2)c2nc(N3CCOC[C@H]3C)cc(-c3ccccc3S(C)(=O)=O)c12 : ____
Ans: 47.2

Q: Reported IC50, compound Cc1cnc(-c2ccn[nH]2)c2nc(N3CCOC[C@H]3C)cc(OC(C)C)c12 : ____
Ans: 25.9

Q: Reported IC50, compound Cc1nc(S(C)(=O)=O)ccc1-c1cc(N2CCOC[C@H]2C)nc2c(-c3ccn[nH]3)ncc(C)c12 : ____
Ans: 37.3

Q: Reported IC50, compound Cc1cnc(-c2ccn[nH]2)c2nc(N3CCOC[C@H]3C)cc(N=S3(=O)CCCC3)c12 : ____
Ans: 35.5

----------
Would you mind telling me the reported pIC50 of each entry?
Biological target: full-length human ATR protein (ATR/ATRIP) (Homo sapiens (Human), UniProt Q13535)
Sequence (Q13535 other isoform, or with tags, fused parts or gaps): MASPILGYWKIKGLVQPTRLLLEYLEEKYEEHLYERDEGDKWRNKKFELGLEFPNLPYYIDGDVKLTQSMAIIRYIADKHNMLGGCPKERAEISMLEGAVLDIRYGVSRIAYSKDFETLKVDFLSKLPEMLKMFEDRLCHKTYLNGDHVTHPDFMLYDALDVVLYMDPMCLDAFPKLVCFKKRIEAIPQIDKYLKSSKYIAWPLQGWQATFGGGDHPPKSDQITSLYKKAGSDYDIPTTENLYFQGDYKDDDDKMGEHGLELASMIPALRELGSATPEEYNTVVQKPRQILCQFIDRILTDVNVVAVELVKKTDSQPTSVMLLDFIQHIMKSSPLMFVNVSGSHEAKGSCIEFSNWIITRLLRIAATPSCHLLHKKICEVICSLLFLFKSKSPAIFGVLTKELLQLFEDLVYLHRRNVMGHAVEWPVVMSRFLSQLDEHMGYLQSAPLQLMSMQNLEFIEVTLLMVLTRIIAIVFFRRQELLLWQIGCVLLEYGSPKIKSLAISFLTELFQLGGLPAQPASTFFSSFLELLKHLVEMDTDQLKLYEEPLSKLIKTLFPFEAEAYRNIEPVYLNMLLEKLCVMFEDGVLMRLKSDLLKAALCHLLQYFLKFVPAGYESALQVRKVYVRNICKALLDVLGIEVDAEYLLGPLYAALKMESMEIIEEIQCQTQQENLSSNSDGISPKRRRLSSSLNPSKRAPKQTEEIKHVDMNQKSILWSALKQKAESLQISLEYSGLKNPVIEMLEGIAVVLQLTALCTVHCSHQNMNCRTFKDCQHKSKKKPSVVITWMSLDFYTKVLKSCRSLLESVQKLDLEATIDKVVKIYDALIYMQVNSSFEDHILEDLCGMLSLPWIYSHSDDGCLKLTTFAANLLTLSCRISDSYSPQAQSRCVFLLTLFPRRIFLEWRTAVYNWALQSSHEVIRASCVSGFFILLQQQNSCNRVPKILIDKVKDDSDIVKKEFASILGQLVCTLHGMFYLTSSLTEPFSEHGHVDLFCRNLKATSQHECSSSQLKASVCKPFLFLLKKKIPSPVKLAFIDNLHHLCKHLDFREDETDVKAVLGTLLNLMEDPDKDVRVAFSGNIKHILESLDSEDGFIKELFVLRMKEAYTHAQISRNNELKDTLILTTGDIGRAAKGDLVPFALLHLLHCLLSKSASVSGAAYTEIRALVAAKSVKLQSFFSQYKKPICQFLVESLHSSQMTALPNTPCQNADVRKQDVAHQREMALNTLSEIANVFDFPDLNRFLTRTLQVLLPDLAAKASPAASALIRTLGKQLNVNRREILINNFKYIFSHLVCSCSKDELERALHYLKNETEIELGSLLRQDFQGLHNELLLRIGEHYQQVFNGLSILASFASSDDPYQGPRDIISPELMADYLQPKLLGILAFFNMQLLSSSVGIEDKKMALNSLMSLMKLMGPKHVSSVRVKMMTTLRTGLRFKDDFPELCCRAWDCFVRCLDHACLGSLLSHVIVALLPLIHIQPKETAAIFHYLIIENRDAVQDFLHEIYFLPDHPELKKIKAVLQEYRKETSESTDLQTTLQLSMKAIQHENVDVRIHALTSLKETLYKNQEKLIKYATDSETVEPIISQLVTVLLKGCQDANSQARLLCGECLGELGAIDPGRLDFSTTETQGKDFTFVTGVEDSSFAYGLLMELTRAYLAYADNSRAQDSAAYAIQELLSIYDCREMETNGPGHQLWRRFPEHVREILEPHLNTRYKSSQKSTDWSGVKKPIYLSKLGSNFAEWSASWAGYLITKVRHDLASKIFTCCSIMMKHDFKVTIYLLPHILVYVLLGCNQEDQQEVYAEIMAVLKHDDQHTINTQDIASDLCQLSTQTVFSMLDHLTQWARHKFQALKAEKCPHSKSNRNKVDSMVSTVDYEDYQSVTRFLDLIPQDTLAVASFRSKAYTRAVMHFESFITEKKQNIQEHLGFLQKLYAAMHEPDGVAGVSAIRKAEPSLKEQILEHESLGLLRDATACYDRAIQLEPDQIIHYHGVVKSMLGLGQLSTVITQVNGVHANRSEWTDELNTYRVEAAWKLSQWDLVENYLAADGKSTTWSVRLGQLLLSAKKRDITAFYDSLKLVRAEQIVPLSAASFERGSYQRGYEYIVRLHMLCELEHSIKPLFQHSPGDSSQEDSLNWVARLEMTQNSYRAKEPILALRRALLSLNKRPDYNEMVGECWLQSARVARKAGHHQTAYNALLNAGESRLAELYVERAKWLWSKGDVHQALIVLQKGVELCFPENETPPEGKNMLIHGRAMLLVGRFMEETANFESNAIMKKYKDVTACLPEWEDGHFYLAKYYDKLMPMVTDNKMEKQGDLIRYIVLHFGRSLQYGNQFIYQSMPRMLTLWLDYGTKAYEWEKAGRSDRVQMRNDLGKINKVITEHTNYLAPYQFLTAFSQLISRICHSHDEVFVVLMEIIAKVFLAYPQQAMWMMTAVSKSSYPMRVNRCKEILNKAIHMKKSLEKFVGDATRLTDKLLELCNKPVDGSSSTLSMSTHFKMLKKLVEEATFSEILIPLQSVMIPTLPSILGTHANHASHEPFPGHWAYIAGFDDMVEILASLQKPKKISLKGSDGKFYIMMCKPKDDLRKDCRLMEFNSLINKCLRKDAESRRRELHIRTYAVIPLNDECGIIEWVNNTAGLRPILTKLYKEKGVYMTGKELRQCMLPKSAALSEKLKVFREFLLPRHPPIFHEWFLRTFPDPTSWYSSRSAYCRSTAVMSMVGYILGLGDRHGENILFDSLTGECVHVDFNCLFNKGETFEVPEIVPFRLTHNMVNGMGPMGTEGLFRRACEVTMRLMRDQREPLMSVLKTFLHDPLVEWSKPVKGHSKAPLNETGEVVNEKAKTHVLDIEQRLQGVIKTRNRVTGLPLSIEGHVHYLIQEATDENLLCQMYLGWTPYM
Sequence (Q8WXE1 other isoform, or with tags, fused parts or gaps partner): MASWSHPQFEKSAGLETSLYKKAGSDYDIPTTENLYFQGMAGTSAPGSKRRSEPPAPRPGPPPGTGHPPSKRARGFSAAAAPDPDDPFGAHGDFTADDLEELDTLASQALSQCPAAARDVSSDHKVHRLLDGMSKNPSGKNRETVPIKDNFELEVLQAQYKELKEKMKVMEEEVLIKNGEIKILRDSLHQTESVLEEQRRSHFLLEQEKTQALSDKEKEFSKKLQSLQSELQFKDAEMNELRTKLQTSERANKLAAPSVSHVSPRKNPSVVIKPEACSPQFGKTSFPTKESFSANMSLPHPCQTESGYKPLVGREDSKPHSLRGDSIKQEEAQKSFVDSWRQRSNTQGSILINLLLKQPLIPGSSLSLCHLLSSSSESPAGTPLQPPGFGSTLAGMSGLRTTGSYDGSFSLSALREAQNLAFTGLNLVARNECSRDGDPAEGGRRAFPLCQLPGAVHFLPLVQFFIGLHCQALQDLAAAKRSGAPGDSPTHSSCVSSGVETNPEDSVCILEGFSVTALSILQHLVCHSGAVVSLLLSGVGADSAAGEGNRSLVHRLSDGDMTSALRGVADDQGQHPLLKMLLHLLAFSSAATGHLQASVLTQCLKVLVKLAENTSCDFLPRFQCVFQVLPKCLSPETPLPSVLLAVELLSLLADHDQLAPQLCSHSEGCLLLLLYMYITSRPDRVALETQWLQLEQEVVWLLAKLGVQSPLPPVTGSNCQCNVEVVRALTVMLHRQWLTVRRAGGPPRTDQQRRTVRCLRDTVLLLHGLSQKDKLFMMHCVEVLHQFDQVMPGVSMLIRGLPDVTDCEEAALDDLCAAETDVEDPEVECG
Test: Binding Assay ATR (TR-FRET, tracer A displacement)
Details: displacement of fluorescent tracer A from GST-ATR/ATRIP
pIC50 (log units): -log10 of the concentration in mol/L.

Q: Give full-length human ATR protein (ATR/ATRIP) (Homo sapiens (Human), UniProt Q13535) pIC50 for Cc1cnc(-c2ccn[nH]2)c2nc(N3CCOC[C@H]3C)cc(-c3ccc(F)cc3)c12 [Example 24]
Ans: 7.46

Q: Give full-length human ATR protein (ATR/ATRIP) (Homo sapiens (Human), UniProt Q13535) pIC50 for Cc1cnc(-c2ccn[nH]2)c2nc(N3CCOC[C@H]3C)cc(-c3ccc4c(c3)OCCO4)c12 [Example 21]
Ans: 7.75

Q: Give full-length human ATR protein (ATR/ATRIP) (Homo sapiens (Human), UniProt Q13535) pIC50 for COc1cc(Cl)ccc1-c1cc(N2CCOC[C@H]2C)nc2c(-c3ccn[nH]3)ncc(C)c12 [Example 38]
Ans: 7.32

Q: Give full-length human ATR protein (ATR/ATRIP) (Homo sapiens (Human), UniProt Q13535) pIC50 for COc1cccc(-c2cc(N3CCOC[C@H]3C)nc3c(-c4ccn[nH]4)ncc(C)c23)c1F [Example 30]
Ans: 7.76

Q: Give full-length human ATR protein (ATR/ATRIP) (Homo sapiens (Human), UniProt Q13535) pIC50 for CSc1ccc(-c2cc(N3CCOC[C@H]3C)nc3c(-c4ccn[nH]4)ncc(C)c23)cc1 [Example 39]
Ans: 7.50

Q: Give full-length human ATR protein (ATR/ATRIP) (Homo sapiens (Human), UniProt Q13535) pIC50 for Cc1cnc(-c2ccn[nH]2)c2nc(N3CCOC[C@H]3C)cc(-c3ccnc4ccccc34)c12 [Example 43]
Ans: 7.44

Q: Give full-length human ATR protein (ATR/ATRIP) (Homo sapiens (Human), UniProt Q13535) pIC50 for Cc1cnc(-c2ccn[nH]2)c2nc(N3CCOC[C@H]3C)cc(-c3cccc(OC(C)C)c3)c12 [Example 60]
Ans: 6.88

Q: Give full-length human ATR protein (ATR/ATRIP) (Homo sapiens (Human), UniProt Q13535) pIC50 for Cc1cnc(-c2ccn[nH]2)c2nc(N3CCOC[C@H]3C)cc(-c3ccc4c(ccn4C)c3)c12 [Example 57]
Ans: 7.30

----------
Would you mind telling me the reported IC50 of each entry?
Biological target: full-length human ATR protein (ATR/ATRIP) (Homo sapiens (Human), UniProt Q13535)
Assay: Binding Assay ATR (TR-FRET, tracer A displacement)
Conditions: displacement of fluorescent tracer A from GST-ATR/ATRIP
Response body: numeric value in µM, unit text excluded.

Q: Reported IC50, molecule Cc1ccncc1-c1cc(N2CCOC[C@H]2C)nc2c(-c3ccn[nH]3)ncc(C)c12 : ____
Ans: 0.0086

Q: Reported IC50, molecule Cc1cnc(-c2ccn[nH]2)c2nc(N3CCOC[C@H]3C)cc(-c3ccc(C(=O)NC(C)(C)C)cc3)c12 : ____
Ans: 0.0182

Q: Reported IC50, molecule Cc1cnc(-c2ccn[nH]2)c2nc(N3CCOC[C@H]3C)cc(-c3ccc(CO)s3)c12 : ____
Ans: 0.00409

Q: Reported IC50, molecule Cc1cnc(-c2ccn[nH]2)c2nc(N3CCOC[C@H]3C)cc(-c3ccc(Cl)cc3Cl)c12 : ____
Ans: 0.0164

Q: Reported IC50, molecule Cc1cnc(-c2ccn[nH]2)c2nc(N3CCOC[C@H]3C)cc(-c3ccc([S+](C)[O-])cc3)c12 (some centres unmarked) : ____
Ans: 0.0291

Q: Reported IC50, molecule Cc1cnc(-c2ccn[nH]2)c2nc(N3CCOC[C@H]3C)cc(-c3cccc(N(C)C)c3)c12 : ____
Ans: 0.0343

Q: Reported IC50, molecule Cc1cnc(-c2ccn[nH]2)c2nc(N3CCOC[C@H]3C)cc(-c3cccc(CO)c3)c12 : ____
Ans: 0.014

Q: Reported IC50, molecule Cc1cnc(-c2ccn[nH]2)c2nc(N3CCOC[C@H]3C)cc(N3CCC(CO)CC3)c12 : ____
Ans: 0.0038

----------
Would you mind telling me the reported IC50 of each entry?
Target: full-length human ATR protein (ATR/ATRIP) (Homo sapiens (Human))
Test: Binding Assay ATR (TR-FRET, tracer A displacement)
Conditions: displacement of fluorescent tracer A from GST-ATR/ATRIP
Response body: numeric value in nM, unit text excluded.

Q: Reported IC50, molecule Cc1cnc(-c2ccn[nH]2)c2nc(N3CCOC[C@H]3C)cc(-c3cccnc3F)c12 : ____
Ans: 8.13

Q: Reported IC50, molecule COc1ccc(-c2cc(N3CCOC[C@H]3C)nc3c(-c4ccn[nH]4)ncc(C)c23)cc1 : ____
Ans: 25.4

Q: Reported IC50, molecule COCc1ccc(-c2cc(N3CCOC[C@H]3C)nc3c(-c4ccn[nH]4)ncc(C)c23)cc1 : ____
Ans: 12.3

Q: Reported IC50, molecule Cc1cnc(-c2ccn[nH]2)c2nc(N3CCOC[C@H]3C)cc(-c3ccc(F)nc3)c12 : ____
Ans: 28.6

Q: Reported IC50, molecule Cc1cc(-c2cc(N3CCOC[C@H]3C)nc3c(-c4ccn[nH]4)ncc(C)c23)ccc1Cl : ____
Ans: 456

Q: Reported IC50, molecule Cc1cnc(-c2ccn[nH]2)c2nc(N3CCOC[C@H]3C)cc(-c3ccnn3C)c12 : ____
Ans: 6.02

Q: Reported IC50, molecule Cc1cnc(-c2ccn[nH]2)c2nc(N3CCOC[C@H]3C)cc(-c3cccc(S(C)(=O)=O)c3)c12 : ____
Ans: 24.9

Q: Reported IC50, molecule Cc1cnc(-c2ccn[nH]2)c2nc(N3CCOC[C@H]3C)cc(-c3ccc4cc[nH]c4c3)c12 : ____
Ans: 94.7

Q: Reported IC50, molecule COc1cccc(-c2cc(N3CCOC[C@H]3C)nc3c(-c4ccn[nH]4)ncc(C)c23)c1OC : ____
Ans: 13.8

Q: Reported IC50, molecule Cc1cnc(-c2ccn[nH]2)c2nc(N3CCOC[C@H]3C)cc(-c3ccc(C#N)c(F)c3)c12 : ____
Ans: 23.2

Q: Reported IC50, molecule Cc1cnc(-c2ccn[nH]2)c2nc(N3CCOC[C@H]3C)cc(-c3ccc(NS(C)(=O)=O)cc3)c12 : ____
Ans: 4.31

Q: Reported IC50, molecule Cc1cnc(-c2ccn[nH]2)c2nc(N3CCOC[C@H]3C)cc(-c3cccc4[nH]ccc34)c12 : ____
Ans: 35.5

Q: Reported IC50, molecule COCc1cccc(-c2cc(N3CCOC[C@H]3C)nc3c(-c4ccn[nH]4)ncc(C)c23)c1 : ____
Ans: 62.4

Q: Reported IC50, molecule Cc1cnc(-c2ccn[nH]2)c2nc(N3CCOC[C@H]3C)cc(-c3ccc(N4CCNCC4)cc3F)c12 : ____
Ans: 14.2

Q: Reported IC50, molecule Cc1cnc(-c2ccn[nH]2)c2nc(N3CCOC[C@H]3C)cc(N3CCOCC3)c12 : ____
Ans: 8.91

Q: Reported IC50, molecule Cc1cnc(-c2ccn[nH]2)c2nc(N3CCOC[C@H]3C)cc(-c3cncn3C)c12 : ____
Ans: 5.86

Attribution: patent US10729680B2
